# System: 885724-159-R-J1-PDC KRAS PDC multicell spheroid viability
# protocol: Anticancer human tumor 885724-159-R-J1-PDC patient-derived pancreatic adenocarcinoma cell line growth inhibition [KRAS2]
# conditions: second compound 1 µM; first compound 0.01 µM; stronger effect = lower value
Rule: measured viability, T/C below 90% gets label 1; anything equal to or greater than 90% gets label 0.

| compound | classLabel |
| --- | --- |
| CC(C)n1nc(-c2ccc3oc(N)nc3c2)c2c(N)ncnc21 + C=CC(=O)N1CCN(c2nc(OCC3CCCN3C)nc3c2CCN(c2cccc4cccc(C)c24)C3)CC1CC#N | label 1 |
| CC(=O)OC12COC1CC(O)C1(C)C(=O)C(O)C3=C(C)C(OC(=O)C(O)C(NC(=O)OC(C)(C)C)c4ccccc4)CC(O)(C(OC(=O)c4ccccc4)C21)C3(C)C (stereo not given) + C=CC(=O)N1CCN(c2nc(=O)n(-c3c(C)ccnc3C(C)C)c3nc(-c4c(O)cccc4F)c(F)cc23)C(C)C1 | label 0 |
| Cn1ncnc1[C@H]1c2n[nH]c(=O)c3cc(F)cc(c23)N[C@@H]1c1ccc(F)cc1 + C=CC(=O)N1CCN(c2nc(=O)n(-c3c(C)ccnc3C(C)C)c3nc(-c4c(O)cccc4F)c(F)cc23)C(C)C1 | label 0 |
| Cn1ncnc1[C@H]1c2n[nH]c(=O)c3cc(F)cc(c23)N[C@@H]1c1ccc(F)cc1 + COc1cc2nc(C)nc(NC(C)c3cc(N)cc(C(F)(F)F)c3)c2cc1OC1CCOC1 | label 0 |
| CC1COCCN1c1cc(-c2ccnn2C)c2ccnc(-c3ccn[nH]3)c2n1 (stereo not given) + CC1OCC2(CCN(c3cnc(Sc4ccnc(N)c4Cl)c(N)n3)CC2)C1N | label 1 |
| CCN1CCN(Cc2ccc(Nc3ncc(F)c(-c4cc(F)c5nc(C)n(C(C)C)c5c4)n3)nc2)CC1 + C=CC(=O)N1CCN(c2nc(OCC3CCCN3C)nc3c2CCN(c2cccc4cccc(C)c24)C3)CC1CC#N | label 1 |
| CCN1CCN(Cc2ccc(Nc3ncc(F)c(-c4cc(F)c5nc(C)n(C(C)C)c5c4)n3)nc2)CC1 + CC1OCC2(CCN(c3cnc(Sc4ccnc(N)c4Cl)c(N)n3)CC2)C1N | label 1 |
| CN(C)C/C=C/C(=O)Nc1cc2c(Nc3ccc(F)c(Cl)c3)ncnc2cc1O[C@H]1CCOC1 + C=CC(=O)N1CCN(c2nc(=O)n(-c3c(C)ccnc3C(C)C)c3nc(-c4c(O)cccc4F)c(F)cc23)C(C)C1 | label 0 |
| CC1COCCN1c1cc(-c2ccnn2C)c2ccnc(-c3ccn[nH]3)c2n1 (stereo not given) + C=CC(=O)N1CCN(c2nc(OCC3CCCN3C)nc3c2CCN(c2cccc4cccc(C)c24)C3)CC1CC#N | label 1 |
| CC(C)n1nc(-c2ccc3oc(N)nc3c2)c2c(N)ncnc21 + C=CC(=O)N1CCN(c2nc(=O)n(-c3c(C)ccnc3C(C)C)c3nc(-c4c(O)cccc4F)c(F)cc23)C(C)C1 | label 1 |

* * *

Parameter: pIC50. Scope: all listed entries.
# Tested on: 885724-159-R-J1-PDC KRAS PDC multicell spheroid viability
# protocol: Anticancer human tumor 885724-159-R-J1-PDC cell line growth inhibition [KRAS2];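 note: spheroids exposed to agents for 7 days before readout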
# conditions: curve of first compound; second compound 10 µM
# Text: Multicellular complex tumor spheroid response to RAS pathway inhibitors in combination with a targeted agents in patient-derived cell lines with oncogenic KRAS variants from multiple cancer types A high-throughput screen of multi-cell type tumor spheroids was designed to identify active combinations of targeted small molecules and KRAS pathway inhibitors. […] Compounds. […] If the clinical Cmax for an agent had not been determined, the highest concentration tested was 10 microM. […]
pIC50: −log10 of the molar value.
valueType: pIC50

| compound | assayedSystem | recordedResult |
| --- | --- | --- |
| CC(=O)OC12COC1CC(O)C1(C)C(=O)C(O)C3=C(C)C(OC(=O)C(O)C(NC(=O)OC(C)(C)C)c4ccccc4)CC(O)(C(OC(=O)c4ccccc4)C21)C3(C)C (stereo not given) + CC1OCC2(CCN(c3cnc(Sc4ccnc(N)c4Cl)c(N)n3)CC2)C1N | 885724-159-R-J1-PDC KRAS PDC multicell spheroid viability | < 5.50 |
| CCNC(=O)CC1N=C(c2ccc(Cl)cc2)c2cc(OC)ccc2-n2c(C)nnc21 (stereo not given) + COc1cc2nc(C)nc(NC(C)c3cc(N)cc(C(F)(F)F)c3)c2cc1OC1CCOC1 | 885724-159-R-J1-PDC KRAS PDC multicell spheroid viability | > 7.50 |
| CC(C)n1nc(-c2ccc3oc(N)nc3c2)c2c(N)ncnc21 + COc1cc2nc(C)nc(NC(C)c3cc(N)cc(C(F)(F)F)c3)c2cc1OC1CCOC1 | 885724-159-R-J1-PDC KRAS PDC multicell spheroid viability | > 9.50 |
| Cn1ncnc1[C@H]1c2n[nH]c(=O)c3cc(F)cc(c23)N[C@@H]1c1ccc(F)cc1 + C=CC(=O)N1CCN(c2nc(=O)n(-c3c(C)ccnc3C(C)C)c3nc(-c4c(O)cccc4F)c(F)cc23)C(C)C1 | 885724-159-R-J1-PDC KRAS PDC multicell spheroid viability | < 7.00 |
| Cn1ncnc1[C@H]1c2n[nH]c(=O)c3cc(F)cc(c23)N[C@@H]1c1ccc(F)cc1 + COc1cc2nc(C)nc(NC(C)c3cc(N)cc(C(F)(F)F)c3)c2cc1OC1CCOC1 | 885724-159-R-J1-PDC KRAS PDC multicell spheroid viability | > 9.50 |

* * *

# System: 885724-159-R-J1-PDC KRAS PDC multicell spheroid viability
# protocol: Anticancer human tumor 885724-159-R-J1-PDC cell line growth inhibition [KRAS2]; active = viability on the fitted dose curve at most 10% of control; inactive = the rest;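 note: spheroids exposed to agents for 7 days before readout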
# conditions: second compound 3.16 µM; first compound 3.16 µM
Classes used: 1 = active, 0 = inactive

| compound | classLabel |
| --- | --- |
| CC1COCCN1c1cc(-c2ccnn2C)c2ccnc(-c3ccn[nH]3)c2n1 (stereo not drawn) + C=CC(=O)N1CCN(c2nc(OCC3CCCN3C)nc3c2CCN(c2cccc4cccc(C)c24)C3)CC1CC#N | 0 |
| CC(C)NCC(C(=O)N1CCN(c2ncnc3c2C(C)CC3O)CC1)c1ccc(Cl)cc1 (stereo not drawn) + CNCc1ccccc1-c1csc(C(C)Nc2nc(C)nc3cc(OC)c(OC)cc23)c1 | 1 |
| COc1cc2nccc(Oc3ccc(NC(=O)C4(C(=O)Nc5ccc(F)cc5)CC4)cc3)c2cc1OC + CC1OCC2(CCN(c3cnc(Sc4ccnc(N)c4Cl)c(N)n3)CC2)C1N | 0 |

* * *

# Test system: 885724-159-R-J1-PDC KRAS PDC multicell spheroid viability
# protocol: Anticancer human tumor 885724-159-R-J1-PDC cell line growth inhibition [KRAS2];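 note: spheroids exposed to agents for 7 days before readout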
# conditions: second compound 10 µM; first compound 0.0316 µM; stronger effect = lower value

| compound | unitSymbol | viability, T/C |
| --- | --- | --- |
| CC1COCCN1c1cc(-c2ccnn2C)c2ccnc(-c3ccn[nH]3)c2n1 (stereo unspecified) + CC1OCC2(CCN(c3cnc(Sc4ccnc(N)c4Cl)c(N)n3)CC2)C1N | % | 59.7 |
| CCNC(=O)CC1N=C(c2ccc(Cl)cc2)c2cc(OC)ccc2-n2c(C)nnc21 (stereo unspecified) + CNCc1ccccc1-c1csc(C(C)Nc2nc(C)nc3cc(OC)c(OC)cc23)c1 | % | 0.33 |
| CC(=O)Nc1cccc(-n2c(=O)n(C3CC3)c(=O)c3c(Nc4ccc(I)cc4F)n(C)c(=O)c(C)c32)c1 + COc1cc2nc(C)nc(NC(C)c3cc(N)cc(C(F)(F)F)c3)c2cc1OC1CCOC1 | % | 0.32 |
| CC(C)NCC(C(=O)N1CCN(c2ncnc3c2C(C)CC3O)CC1)c1ccc(Cl)cc1 (stereo unspecified) + COc1cc2nc(C)nc(NC(C)c3cc(N)cc(C(F)(F)F)c3)c2cc1OC1CCOC1 | % | 39.2 |
| COc1cc(Nc2ncc3c(n2)-c2ccc(Cl)cc2C(c2c(F)cccc2OC)=NC3)ccc1C(=O)O + CNCc1ccccc1-c1csc(C(C)Nc2nc(C)nc3cc(OC)c(OC)cc23)c1 | % | 0.16 |
| Cn1ncnc1[C@H]1c2n[nH]c(=O)c3cc(F)cc(c23)N[C@@H]1c1ccc(F)cc1 + CC1OCC2(CCN(c3cnc(Sc4ccnc(N)c4Cl)c(N)n3)CC2)C1N | % | 61.7 |
| CCNC(=O)CC1N=C(c2ccc(Cl)cc2)c2cc(OC)ccc2-n2c(C)nnc21 (stereo unspecified) + COc1cc2nc(C)nc(NC(C)c3cc(N)cc(C(F)(F)F)c3)c2cc1OC1CCOC1 | % | 34.8 |
| CN(C)C/C=C/C(=O)Nc1cc2c(Nc3ccc(F)c(Cl)c3)ncnc2cc1O[C@H]1CCOC1 + CNCc1ccccc1-c1csc(C(C)Nc2nc(C)nc3cc(OC)c(OC)cc23)c1 | % | 0.22 |
| CN(C)C/C=C/C(=O)Nc1cc2c(Nc3ccc(F)c(Cl)c3)ncnc2cc1O[C@H]1CCOC1 + COc1cc2nc(C)nc(NC(C)c3cc(N)cc(C(F)(F)F)c3)c2cc1OC1CCOC1 | % | 60 |
| CC(C)NCC(C(=O)N1CCN(c2ncnc3c2C(C)CC3O)CC1)c1ccc(Cl)cc1 (stereo unspecified) + CC1OCC2(CCN(c3cnc(Sc4ccnc(N)c4Cl)c(N)n3)CC2)C1N | % | 56.4 |
| CC(C)n1nc(-c2ccc3oc(N)nc3c2)c2c(N)ncnc21 + CNCc1ccccc1-c1csc(C(C)Nc2nc(C)nc3cc(OC)c(OC)cc23)c1 | % | 0.23 |
| Cn1ncnc1[C@H]1c2n[nH]c(=O)c3cc(F)cc(c23)N[C@@H]1c1ccc(F)cc1 + CNCc1ccccc1-c1csc(C(C)Nc2nc(C)nc3cc(OC)c(OC)cc23)c1 | % | 0.22 |
| CC(C)n1nc(-c2ccc3oc(N)nc3c2)c2c(N)ncnc21 + C=CC(=O)N1CCN(c2nc(=O)n(-c3c(C)ccnc3C(C)C)c3nc(-c4c(O)cccc4F)c(F)cc23)C(C)C1 | % | 40.1 |
| COc1cc2nccc(Oc3ccc(NC(=O)C4(C(=O)Nc5ccc(F)cc5)CC4)cc3)c2cc1OC + C=CC(=O)N1CCN(c2nc(=O)n(-c3c(C)ccnc3C(C)C)c3nc(-c4c(O)cccc4F)c(F)cc23)C(C)C1 | % | 75.6 |
| CC1(C)CCC(CN2CCN(c3ccc(C(=O)NS(=O)(=O)c4ccc(NCC5CCOCC5)c([N+](=O)[O-])c4)c(Oc4cnc5[nH]ccc5c4)c3)CC2)=C(c2ccc(Cl)cc2)C1 + CNCc1ccccc1-c1csc(C(C)Nc2nc(C)nc3cc(OC)c(OC)cc23)c1 | % | 0.42 |
| CC1COCCN1c1cc(-c2ccnn2C)c2ccnc(-c3ccn[nH]3)c2n1 (stereo unspecified) + CNCc1ccccc1-c1csc(C(C)Nc2nc(C)nc3cc(OC)c(OC)cc23)c1 | % | 0.23 |
| Cn1ncnc1[C@H]1c2n[nH]c(=O)c3cc(F)cc(c23)N[C@@H]1c1ccc(F)cc1 + COc1cc2nc(C)nc(NC(C)c3cc(N)cc(C(F)(F)F)c3)c2cc1OC1CCOC1 | % | 34.2 |
| CCNC(=O)CC1N=C(c2ccc(Cl)cc2)c2cc(OC)ccc2-n2c(C)nnc21 (stereo unspecified) + CC1OCC2(CCN(c3cnc(Sc4ccnc(N)c4Cl)c(N)n3)CC2)C1N | % | 66.9 |
| O=C(c1cc(Cc2n[nH]c(=O)c3ccccc23)ccc1F)N1CCN(C(=O)C2CC2)CC1 + CNCc1ccccc1-c1csc(C(C)Nc2nc(C)nc3cc(OC)c(OC)cc23)c1 | % | 0.23 |
| CC1(C)CCC(CN2CCN(c3ccc(C(=O)NS(=O)(=O)c4ccc(NCC5CCOCC5)c([N+](=O)[O-])c4)c(Oc4cnc5[nH]ccc5c4)c3)CC2)=C(c2ccc(Cl)cc2)C1 + C=CC(=O)N1CCN(c2nc(=O)n(-c3c(C)ccnc3C(C)C)c3nc(-c4c(O)cccc4F)c(F)cc23)C(C)C1 | % | 91.1 |
| CC(=O)OC12COC1CC(O)C1(C)C(=O)C(O)C3=C(C)C(OC(=O)C(O)C(NC(=O)OC(C)(C)C)c4ccccc4)CC(O)(C(OC(=O)c4ccccc4)C21)C3(C)C (stereo unspecified) + COc1cc2nc(C)nc(NC(C)c3cc(N)cc(C(F)(F)F)c3)c2cc1OC1CCOC1 | % | 105 |
